biological target: UniProt:P21589; assay: Inhibition of C-terminal 6His-tagged human recombinant CD73 expressed in CHO cells incubated for 1 hr by malachite green based spectrophotometer assay; type: cell-based
pIC50: −log10 of the molar value.
MEASURED_ENDPOINT: pIC50

a. COC[C@](CO)(OC[C@H]1O[C@@H](n2ncc3c(NC4CCCC4)nc(Cl)nc32)[C@H](O)[C@@H]1O)P(=O)(O)O
b. O=P(O)(O)COC[C@H]1O[C@@H](n2ncc3c(N4CC5(CCc6ccccc65)C4)nc(Cl)nc32)[C@H](O)[C@@H]1O
c. O=P(O)(O)CP(=O)(O)CC(O)[C@H]1O[C@@H](n2ccnn2)[C@H](O)[C@@H]1O (stereo partly drawn)
input: Please give the order of these molecules when sorted by pIC50, largest value leading. // format: requested-order list of labels
output: b, a, c

* * *

molecular target: 5'-nucleotidase (Homo sapiens); test: Binding affinity to human recombinant CD73 assessed as inhibition constant
MEASURED_ENDPOINT: Ki (µM)

1. CN(Cc1ccccc1F)c1nc(Cl)nc2c1ncn2[C@@H]1O[C@H](COP(=O)(O)OP(=O)(O)O)[C@@H](O)[C@H]1O
2. Nc1ncnc2c1ncn2[C@@H]1O[C@H](COP(=O)(O)OP(=O)(O)O)[C@@H](O)[C@H]1O [ADENOSINE DIPHOSPHATE]
input: For the pair 1 and 2 , which member has the lower Ki number? To answer, give the label that identifies your chosen option.
output: 1

* * *

target: 5'-nucleotidase (Homo sapiens, UniProt P21589); experiment: Binding affinity to CD73 (unknown origin) assessed as inhibition constant
Sequence (P21589 whole entry): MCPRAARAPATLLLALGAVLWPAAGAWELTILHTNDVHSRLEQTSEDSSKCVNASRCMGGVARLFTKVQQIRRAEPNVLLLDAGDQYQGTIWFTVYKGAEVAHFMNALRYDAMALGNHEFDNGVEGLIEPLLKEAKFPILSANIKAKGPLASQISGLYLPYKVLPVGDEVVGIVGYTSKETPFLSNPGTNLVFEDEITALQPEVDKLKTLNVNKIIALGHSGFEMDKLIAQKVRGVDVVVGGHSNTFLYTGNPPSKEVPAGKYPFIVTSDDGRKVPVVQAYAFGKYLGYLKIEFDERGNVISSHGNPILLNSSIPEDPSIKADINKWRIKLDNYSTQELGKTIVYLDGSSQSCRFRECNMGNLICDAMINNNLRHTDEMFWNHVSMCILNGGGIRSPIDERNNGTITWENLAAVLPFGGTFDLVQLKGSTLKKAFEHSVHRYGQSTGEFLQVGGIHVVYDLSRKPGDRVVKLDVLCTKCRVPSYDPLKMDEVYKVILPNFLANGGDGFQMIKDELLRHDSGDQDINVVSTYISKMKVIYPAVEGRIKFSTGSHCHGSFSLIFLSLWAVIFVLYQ
MEASURED_ENDPOINT: pKi
Value format note: pKi is -log10 of concentration (mol/L); just state the number.

input: Find the measured pKi of C=C(C)[C@@H]1CC[C@]2(C(=O)O)CC[C@]3(C)[C@H](CC[C@@H]4[C@@]5(C)CC[C@H](O)C(C)(C)[C@@H]5CC[C@]43C)[C@@H]12 [BETULINIC ACID] and report it.
output: 5.11

* * *

target: UniProt P21589; test: Binding affinity to human recombinant CD73 expressed in Sf9 cells assessed as inhibition constant by malachite green based spectrophotometer assay
pKi: −log10 of the molar value.
MEASURED_ENDPOINT: pKi

I. Cn1c(=O)n([C@@H]2O[C@H](COP(=O)(O)OP(=O)(O)O)[C@@H](O)[C@H]2O)cc/c1=N/Oc1ccccc1
II. Nc1ncnc2c1ncn2COCCOP(=O)(O)CP(=O)(O)O
III. CCN(CC)c1nc(Cl)nc2c1ncn2[C@@H]1O[C@H](COCP(=O)(O)OP(=O)(O)C(Br)(Br)P(=O)(O)O)[C@@H](O)[C@H]1O
input: Parameters: sort_by = pKi; order = desc; input = items above. # list labels per requested ordering
output: I, III, II

* * *

target: 5'-nucleotidase (Homo sapiens); test: Inhibition of CD73 (unknown origin)
MEASURED_ENDPOINT: IC50 (µM)

C=C(C)[C@@H]1CC[C@]2(C(=O)O)CC[C@]3(C)[C@H](CC[C@@H]4[C@@]5(C)CC[C@H](OC(=O)c6ccc(F)cc6)C(C)(C)[C@@H]5CC[C@]43C)[C@@H]12    0.56

P. C=C(C)[C@@H]1CC[C@]2(C(=O)O)CC[C@]3(C)[C@H](CC[C@@H]4[C@@]5(C)CC[C@H](OC(=O)c6ccc(F)c(F)c6)C(C)(C)[C@@H]5CC[C@]43C)[C@@H]12
Q. C=C(C)[C@@H]1CC[C@]2(C(=O)O)CC[C@]3(C)[C@H](CC[C@@H]4[C@@]5(C)CC[C@H](OC(=O)c6c(F)c(F)c(F)c(F)c6F)C(C)(C)[C@@H]5CC[C@]43C)[C@@H]12
input: Hi! Which is lower in terms of IC50, the first one P or the second one Q ? Please identify the chosen entry by its label.
output: Q
(Q: 0.47 µM, P: 0.74 µM)

The reported numbers originate from ChEMBL document CHEMBL5620383.
